Sourced from ChEMBL document CHEMBL5113434

Experiment: Observed volume of distribution at steady state in BALB/c mouse at 1 mg/kg, iv measured up to 24 hrs by UPLC-MS/MS analysis
Type: ADME, organism-based
Conditions: in vivo, read-out: Vdss
endpoint name: Vd (L/kg)
Your answer is read as L/kg, so omit the unit and give the number.

CCn1nc(C)cc1C(=O)Nc1nc2cc(C(N)=O)sc2n1C/C=C/Cn1c(NC(=O)c2cc(C)nn2CC)nc2cc(C(N)=O)cc(OCCCN3CCOCC3)c21 | 1.52

# next compound below
According to the records, this compound CCn1nc(C)cc1C(=O)Nc1nc2cc(C(N)=O)cc(OC)c2n1C/C=C/Cn1c(NC(=O)c2cc(C)nn2CC)nc2cc(C(N)=O)cc(OCCCN3CCOCC3)c21 displays Vd of 0.965

---

Molecular target: Stimulator of interferon genes protein (Mus musculus, UniProt Q3TBT3)
Sequence (Q3TBT3 whole entry): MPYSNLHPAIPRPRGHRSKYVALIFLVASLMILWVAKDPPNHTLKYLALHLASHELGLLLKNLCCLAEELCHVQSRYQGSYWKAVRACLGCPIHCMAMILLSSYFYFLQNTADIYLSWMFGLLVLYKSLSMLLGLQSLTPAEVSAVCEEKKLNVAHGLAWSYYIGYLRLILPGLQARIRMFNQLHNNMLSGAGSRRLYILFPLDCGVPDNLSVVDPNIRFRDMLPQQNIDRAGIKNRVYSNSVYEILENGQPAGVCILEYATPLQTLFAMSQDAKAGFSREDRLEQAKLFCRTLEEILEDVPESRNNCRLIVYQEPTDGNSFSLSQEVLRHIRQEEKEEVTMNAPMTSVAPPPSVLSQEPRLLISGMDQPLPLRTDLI
Experiment: Agonist activity at STING in mouse RAW-Lucia ISG cells assessed as ISG activation incubated for 24 hrs by Quanti-luc reagent based assay
Quick reference for pEC50 among some molecules
Worth noting: pEC50 values are minus log10 of concentrations stated in mol/L.

CCn1nc(C)cc1C(=O)Nc1nc2cc(C(N)=O)sc2n1C/C=C/Cn1c(NC(=O)c2cc(C)nn2CC)nc2cc(C(N)=O)cc(OCCCN3CCOCC3)c21 | 4.48

# next molecule below
According to the records, this molecule CCn1nc(C)cc1C(=O)Nc1nc2cc(C(N)=O)sc2n1C/C=C/Cn1c(NC(=O)c2cc(C)nn2CC)nc2cc(C(N)=O)cc(OC(C)C)c21 displays pEC50 of 4.20

---

Target: Stimulator of interferon genes protein (Mus musculus) (UniProt Q3TBT3)
Sequence (Q3TBT3 whole entry): as above
Experiment: Agonist activity at STING in mouse RAW-Lucia ISG cells assessed as fold change in ISG activation at 50 uM incubated for 24 hrs by Quanti-luc reagent based assay relative to control
Type: cell-based
Settings: filed as agonist
endpoint name: fold change (FC)
Number only, no unit.

CCn1nc(C)cc1C(=O)Nc1nc2sc(C(N)=O)cc2n1CCCCn1c(NC(=O)c2cc(C)nn2CC)nc2cc(C(N)=O)cc(OCCCN3CCOCC3)c21 | 1
CCn1nc(C)cc1C(=O)Nc1nc2cc(C(N)=O)sc2n1C/C=C/Cn1c(NC(=O)c2cc(C)nn2CC)nc2cc(C(N)=O)cc(OCC3CC3)c21 | 12.6
CCn1nc(C)cc1C(=O)Nc1nc2cc(NC(C)=O)ccc2n1CCCCn1c(NC(=O)c2cc(C)nn2CC)nc2cc(C(N)=O)cc(OCCCN3CCOCC3)c21 | 1.18
CCn1nc(C)cc1C(=O)Nc1nc2cc(C(N)=O)sc2n1CCCCn1c(NC(=O)c2cc(C)nn2CC)nc2cc(C(N)=O)sc21 | 2.63
CCn1nc(C)cc1C(=O)Nc1nc2cc(C(N)=O)sc2n1C/C=C/Cn1c(NC(=O)c2cc(C)nn2CC)nc2cc(C(N)=O)cc(OCCCN3CCOCC3)c21 | 20.7
CCn1nc(C)cc1C(=O)Nc1nc2cc(C(N)=O)sc2n1C/C=C/Cn1c(NC(=O)c2cc(C)nn2CC)nc2cc(C(N)=O)cc(O[C@H]3CCOC3)c21 | 1.5

According to the records, this molecule CCn1nc(C)cc1C(=O)Nc1nc2cc(C(N)=O)sc2n1C/C=C/Cn1c(NC(=O)c2cc(C)nn2CC)nc2cc(C(N)=O)cc(OC(C)C)c21 displays fold change (FC) of 13.5
